Tested on: F1*sub RNA substrate (template-directed ligation)
assay overview: fraction ligated after 30 min (ligated reads / total reads); higher = more ligase activity; sequences stand for … in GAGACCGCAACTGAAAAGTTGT…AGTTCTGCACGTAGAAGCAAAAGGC
protocol conditions: 42 °C
value kind: fraction ligated
I'd appreciate a reply containing only the number, no unit.

Here is how some sequences turned out for fraction ligated.
[
  {
    "polymer sequence": "ATCACTTGTCGTAAGACACTTTGATGGGTTGA [2d19]",
    "value kind": "fraction ligated",
    "numeric result": 0.702
  },
  {
    "polymer sequence": "TATCACTGTCTAAGACATTTGGATGGGTTGA [3d1364]",
    "value kind": "fraction ligated",
    "numeric result": 0.803
  }
]

Now for another entry.
Consider the sequence TTCACTTGGTAAGACACTTTGGATGGGTTGA [3d371] and give its measured fraction ligated. 0.708

* * *

Test system: F1*sub RNA substrate (template-directed ligation)
assay overview: fraction ligated after 30 min (ligated reads / total reads); higher = more ligase activity; sequences stand for … in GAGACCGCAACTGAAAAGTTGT…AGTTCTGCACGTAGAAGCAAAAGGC
protocol conditions: 42 °C
Reported fraction ligated by item:

Here is how some sequences turned out for fraction ligated.
[
  {
    "polymer sequence": "ATCACTTGCGTAAGACACTTTGGATGGGTTG [3d155]",
    "fraction ligated": 0.805
  },
  {
    "polymer sequence": "TATCCTTGTCGTAAGACACTTTGATGGGTTA [3d1108]",
    "fraction ligated": 0.644
  },
  {
    "polymer sequence": "TTCACTTGTCGTAAGACACTTTGATGGGTTA [3d495]",
    "fraction ligated": 0.0395
  },
  {
    "polymer sequence": "TATCATGCGTAAGACACTTTGGATGGGTTGA [3d1123]",
    "fraction ligated": 0.833
  },
  {
    "polymer sequence": "TATCCTTGTCGTAGAACTTTGGATGGGTTGA [3d1045]",
    "fraction ligated": 0.792
  },
  {
    "polymer sequence": "TATCATTGTCGTAAGACATTTGGATGGGTTA [3d1267]",
    "fraction ligated": 0.659
  },
  {
    "polymer sequence": "TATCATTGTCGTAAGAACTTTGGTGGGTTGA [3d1250]",
    "fraction ligated": 0.0672
  },
  {
    "polymer sequence": "ATCCTTGTGTAAGACACTTTGGATGGGTTGA [3d70]",
    "fraction ligated": 0.734
  }
]

Consider the sequence TATCTTGTCGTAAGAACTTTGGATGGGTTGA [3d748] and give its measured fraction ligated. 0.841

Then what about the sequence TATCACTTGTCGAAGAACTTTGGTGGGTTGA [3d1938] ? 0.173

Then what about the sequence ATCACTTGTCGAAGAACTTTGGATGGGTTGA [3d188] ? 0.805

* * *

Tested on: F1*sub RNA substrate (template-directed ligation)
assay overview: fraction ligated after 30 min (ligated reads / total reads); higher = more ligase activity; sequences stand for … in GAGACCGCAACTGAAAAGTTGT…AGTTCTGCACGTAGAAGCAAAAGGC
protocol conditions: 42 °C
value kind: fraction ligated
I'd appreciate a reply containing only the number, no unit.

Here is how some sequences turned out for fraction ligated.
[
  {
    "polymer sequence": "TATCACTTGTCGTAAACCTTGGATGGGTTGA [3d2067]",
    "measurement target": "F1*sub RNA substrate (template-directed ligation)",
    "numeric result": 0.783
  },
  {
    "polymer sequence": "TATCATGTCTAAGACACTTTGGATGGGTTGA [3d1125]",
    "measurement target": "F1*sub RNA substrate (template-directed ligation)",
    "numeric result": 0.759
  },
  {
    "polymer sequence": "ATCACTTGTCGTAAGACACTTGGATGGGTTGA [2d18]",
    "measurement target": "F1*sub RNA substrate (template-directed ligation)",
    "numeric result": 0.761
  }
]

# returns recorded fraction ligated (system: F1*sub RNA substrate (template-directed ligation)) for TACCTTGTCGTAAGACACTTTGGATGGGTTGA [2d48] 0.772

Then what about the sequence TACACTTGTCGAAGACACTTTGGTGGGTTGA [3d654] ? 0.115

Then what about the sequence ATCCTTGTCGAAGACACTTTGGATGGGTTGA [3d72] ? 0.773

* * *

Test system: F1*sub RNA substrate (template-directed ligation)
assay overview: fraction ligated after 30 min (ligated reads / total reads); higher = more ligase activity; sequences stand for … in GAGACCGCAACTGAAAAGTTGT…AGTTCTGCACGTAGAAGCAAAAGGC
protocol conditions: 42 °C
Reported fraction ligated by item:
I'd appreciate a reply containing only the number, no unit.

Here is how some sequences turned out for fraction ligated.
[
  {
    "polymer sequence": "TATACTTGTCTAAGACCTTTGGATGGGTTGA [3d848]",
    "value kind": "fraction ligated",
    "numeric result": 0.481
  },
  {
    "polymer sequence": "TATCACTTGTGTAAGACCTTTGGATGGGTTA [3d1777]",
    "value kind": "fraction ligated",
    "numeric result": 0.81
  },
  {
    "polymer sequence": "ATACTTGTCGTAAGACCTTTGGATGGGTTGA [3d58]",
    "value kind": "fraction ligated",
    "numeric result": 0.412
  }
]

Consider the sequence ATCACTTGTCGTAAGACATTTGGATGGGTTGA [2d17] and give its measured fraction ligated. 0.78

* * *

System: F1*sub RNA substrate (template-directed ligation)
assay overview: fraction ligated after 30 min (ligated reads / total reads); higher = more ligase activity; sequences stand for … in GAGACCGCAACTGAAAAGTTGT…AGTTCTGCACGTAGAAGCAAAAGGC
protocol conditions: 42 °C
Parameter threshold = 0.7. Response is true (1) when fraction ligated meets or exceeds it, else false (0).

These solved cases illustrate the format of a correct answer.
[
  {
    "polymer sequence": "TACCTGTCGTAAGACACTTTGGATGGGTTGA [3d528]",
    "qualitative label": "false (0)"
  },
  {
    "polymer sequence": "TATCACTTGTCGAAAACTTTGGATGGGTTGA [3d1915]",
    "qualitative label": "true (1)"
  },
  {
    "polymer sequence": "ATCACTTGTCGTAAGACACTTGATGGGTTGA [3d254]",
    "qualitative label": "false (0)"
  }
]

Is fraction ligated for TATCACTTGTCGAAGACACTTGGATGGGTTA [3d1962] at or above 0.7? true (1)

Then what about the sequence ATCACTTGTCGTAAACACTTTGGATGGGTTGA [2d13] ? true (1)

* * *

System: F1*sub RNA substrate (template-directed ligation)
assay overview: fraction ligated after 30 min (ligated reads / total reads); higher = more ligase activity; sequences stand for … in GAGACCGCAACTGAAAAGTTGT…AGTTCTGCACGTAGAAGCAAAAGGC
protocol conditions: 42 °C
Reported fraction ligated by item:
I'd appreciate a reply containing only the number, no unit.

Here is how some sequences turned out for fraction ligated.
[
  {
    "polymer sequence": "TATACTTGTCGTAAGAACTTGGATGGGTTGA [3d904]",
    "numeric result": 0.717
  },
  {
    "polymer sequence": "ATCCTTGTCGTAAGACCTTTGGATGGGTTGA [3d77]",
    "numeric result": 0.703
  },
  {
    "polymer sequence": "TAACTTGTCGTAAGACACTTTGATGGGTTGA [3d522]",
    "numeric result": 0.0453
  },
  {
    "polymer sequence": "ATCACTTTCGTAAGACACTTTGGATGGTTGA [3d137]",
    "numeric result": 0.191
  },
  {
    "polymer sequence": "TTCCTTGTCGTAGACACTTTGGATGGGTTGA [3d304]",
    "numeric result": 0.77
  }
]

Consider the sequence TATCACTGTCGTAAGACCTTTGGTGGGTTGA [3d1428] and give its measured fraction ligated. 0.441

Then what about the sequence TAACTTGTCGTAGACACTTTGGATGGGTTGA [3d515] ? 0.177

Then what about the sequence TATCCTTGTCGTAAGACACTTTGTGGGTTGA [3d1105] ? 0.0549

Then what about the sequence ACACTTGTCGTAAGACACTTTGGTGGGTTGA [3d41] ? 0.0656

Then what about the sequence TATCACTGTCGTAAGACACTTGGTGGGTTGA [3d1442] ? 0.692

Then what about the sequence TATCCTTGTGTAAGAACTTTGGATGGGTTGA [3d1005] ? 0.818

Then what about the sequence TACACTTGTGTAAGACCTTTGGATGGGTTGA [3d623] ? 0.0441

Then what about the sequence ATCACTTGTCTAAACACTTTGGATGGGTTGA [3d173] ? 0.77

Then what about the sequence TACATTGTCGTAAGACACTTTGATGGGTTGA [3d560] ? 0.232

Then what about the sequence TATCCTTGTCGTAAGACCTTTGGAGGGTTGA [3d1086] ? 0.0073
